Biological target: T1, recombinant cynomolgus monkey IL-13 (cynomolgus monkey, UniProt Q0PW92 21-132)
T1 construct: bought; also called rc-IL-13; cIL-13
T1 sequence (Q0PW92 entry or part of it): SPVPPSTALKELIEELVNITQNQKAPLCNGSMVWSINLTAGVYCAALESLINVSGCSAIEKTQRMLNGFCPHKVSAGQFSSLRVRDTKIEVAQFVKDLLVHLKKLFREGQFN
Assay: SPR
Reported Kd by item:
Write down the numeric answer in nM and omit the unit.

>  <BINDER>
BDG38.132 (antibody, V domains shown, IgG1) VH: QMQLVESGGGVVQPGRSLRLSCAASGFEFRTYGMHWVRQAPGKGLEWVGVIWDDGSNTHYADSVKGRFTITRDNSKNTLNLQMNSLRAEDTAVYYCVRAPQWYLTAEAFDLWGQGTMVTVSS VL: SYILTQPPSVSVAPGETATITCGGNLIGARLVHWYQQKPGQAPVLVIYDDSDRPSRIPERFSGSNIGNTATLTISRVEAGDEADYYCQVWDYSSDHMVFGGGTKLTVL

>  <UNIT OF MEASUREMENT>
nM

>  <Kd>
0.0563

$$$$
>  <BINDER>
BDG38.116 (antibody, V domains shown, IgG1) VH: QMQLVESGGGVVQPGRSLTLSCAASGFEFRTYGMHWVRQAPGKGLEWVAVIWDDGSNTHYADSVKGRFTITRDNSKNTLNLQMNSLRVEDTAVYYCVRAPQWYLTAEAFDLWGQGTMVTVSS VL: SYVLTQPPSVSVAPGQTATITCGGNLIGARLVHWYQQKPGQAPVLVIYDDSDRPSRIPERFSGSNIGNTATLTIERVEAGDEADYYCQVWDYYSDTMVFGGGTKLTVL

>  <UNIT OF MEASUREMENT>
nM

>  <Kd>
0.027

$$$$

Next binder, Kd to be filled in.
I'd like to know its Kd. The binder in question is BDG38.081 (antibody, V domains shown, IgG1) VH: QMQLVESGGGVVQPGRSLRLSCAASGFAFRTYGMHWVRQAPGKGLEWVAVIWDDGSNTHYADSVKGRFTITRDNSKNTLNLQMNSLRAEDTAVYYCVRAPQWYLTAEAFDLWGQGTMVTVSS VL: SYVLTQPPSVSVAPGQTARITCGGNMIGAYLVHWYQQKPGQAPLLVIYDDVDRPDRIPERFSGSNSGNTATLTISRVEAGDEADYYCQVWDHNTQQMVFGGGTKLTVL 0.844

Values from patent US20240059769A1
